system-name: T1, Mcl-1, Q07820
T1 chain: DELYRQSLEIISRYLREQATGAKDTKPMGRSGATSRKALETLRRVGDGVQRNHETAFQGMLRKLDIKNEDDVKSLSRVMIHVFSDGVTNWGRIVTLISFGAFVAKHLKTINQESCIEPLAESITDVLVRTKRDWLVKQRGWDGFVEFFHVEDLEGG
assay-explanation: peptide SPOT array, c-Myc-tagged receptor at 1 uM or 100 nM, anti-c-Myc-Cy3
Values of SPOT signal as a fraction of Bim BH3's signal on the same receptor and array strictly less than 0.03 map to class 1, and values of at least 0.03 map to class 0.

{"columns": ["binder", "label-class"],
 "data": [
  ["TLHFNQRGTWLASGSDDLKVVVWDWV", "class 1"],
  ["EGAKSETAEELKKVAQELEEKLNILN [APOL1]", "class 1"],
  ["LSPGRSVTAGDIIVGDEILKGHTQDT [FLAD1]", "class 1"],
  ["LGRTGQVCLFLKRGADQHALDQEQRD [ACAP3]", "class 0"],
  ["NDDTPWIARTLDNLLDELTAILSAPA [GBP6]", "class 0"],
  ["GKRMKQFPEVIKYLSRNVVHSVRREH [BAZ2A]", "class 0"],
  ["TLHFNQRGTWLASGLDDLKVVVWDWV", "class 1"],
  ["DSLAKFAGRKLKDCGEDLLVEISEVL [PCM1]", "class 1"],
  ["EGMRTILVDWLVEVGEEYKLRAETLY [CCNA1]", "class 0"],
  ["SVLRKALHDSLHDCSHWFYTRWKDWE [ZRANB1]", "class 0"],
  ["LLLPKGVVLKLKPVATRFPRKAWRQK [GON4L]", "class 0"],
  ["MRPEIWIAQEDRRIGDEFNAYYARRV [BCL2L11]", "class 0"],
  ["RRTSINVVRHLGIVLECNIQFALHPT [CPS1]", "class 0"]
]}
